These measurements were taken from PubChem BioAssay AID248.

Would you kindly list T/C for each of these compounds?
System: L1210 leukemia ip in BDF1 mice, survival T/C
procedure-details: NCI In Vivo Anticancer Drug Screen. Data for tumor model L1210 Leukemia (intraperitoneal) in B6D2F1 (BDF1) mice
applied-conditions: endpoint: mean survival time; dose: 50.0 mg/kg/injection; schedule: Q01DX001 (ip); vehicle: saline; higher = longer survival
Toxic doses and inconclusive results are not listed.

• Cc1cc(N(CCCl)CCCl)ccc1C=Nc1ccccc1C(=O)O = 94 % of control
• Cn1ncc2c(N(N)CCO)nc(-c3ccc([N+](=O)[O-])o3)nc21 = 108 % of control
• COc1ccc(/C=N\NC(=O)CCCC(=O)N/N=C/c2ccc(OC)c(OC)c2)cc1OC = 100 % of control

Field: next compound
Incoming: Request the reported T/C associated with CCOC(=O)C1(CC)CNCC(CC)(C(=O)OCC)C1=O (centres undefined)
Outgoing: 103 % of control

====

Would you kindly list T/C for each of these compounds?
System: L1210 leukemia ip in BDF1 mice, survival T/C
procedure-details: NCI In Vivo Anticancer Drug Screen. Data for tumor model L1210 Leukemia (intraperitoneal) in B6D2F1 (BDF1) mice
applied-conditions: endpoint: mean survival time; dose: 100.0 mg/kg/injection; schedule: Q01DX001 (ip); vehicle: saline; higher = longer survival
Procedure: The antitumor activity of compounds was measured in mice bearing transplantable tumors. Survival or tumor size were measured and the results are expressed as the measurement made in the treated group (T) divided by the measurement made in the vehicle treated control group (C). The tumor model used in this assay is L1210 Leukemia (intraperitoneal) in B6D2F1 (BDF1) mice
Toxic doses and inconclusive results are not listed.

// solved cases for T/C follow
* OCC1OC(CO)(c2ccccc2O)C(O)C1O (centres undefined) (tested in a mixture with another compound) | 95 % of control
* O=C(O)c1ccc(C(=O)O)c(O)c1 | 105 % of control
* O=[N+]([O-])c1cccc(P(=O)(O)O)c1 | 107 % of control
* O=C(C(=C(c1ccccc1)c1ccccc1)N1CCCCC1)c1ccccc1 | 96 % of control

Required: T/C, one value per compound below.
1. CCCCNC(=O)CCl
2. CCCCC[As](=O)(O)CCCCC
3. Cc1cc2nc3c(=O)[nH]c(=O)nc-3n(CCOC(=O)CCC(=O)O)c2cc1C
4. Cc1cc(=O)c2cc(C(=O)c3ccccc3)ccc2[nH]1
5. Nc1nc(N)c2nc(NCc3ccc(C(=O)NC(CCC(=O)O)C(=O)O)cc3)cnc2n1 (centres undefined)
6. CCCCCCCCCCCNC=O
7. N#CCCOc1ccccc1
8. Nc1[nH]c(=O)[nH]c(=O)c1N=Nc1ccc(S(=O)(=O)Nc2ccccn2)cc1

Outgoing:
96 % of control
94 % of control
103 % of control
101 % of control
100 % of control
103 % of control
108 % of control
98 % of control

====

Would you kindly list T/C for each of these compounds?
System: L1210 leukemia ip in BDF1 mice, survival T/C
procedure-details: NCI In Vivo Anticancer Drug Screen. Data for tumor model L1210 Leukemia (intraperitoneal) in B6D2F1 (BDF1) mice
applied-conditions: endpoint: mean survival time; dose: 100.0 mg/kg/injection; schedule: Q01DX001 (ip); vehicle: other; higher = longer survival
Procedure: The antitumor activity of compounds was measured in mice bearing transplantable tumors. Survival or tumor size were measured and the results are expressed as the measurement made in the treated group (T) divided by the measurement made in the vehicle treated control group (C). The tumor model used in this assay is L1210 Leukemia (intraperitoneal) in B6D2F1 (BDF1) mice
Inconclusive results and toxic doses are left out.

• O=C(OCCCCCOC(=O)c1cccc([N+](=O)[O-])c1)c1cccc([N+](=O)[O-])c1 = 93 % of control
• Cc1ccc(S(=O)(=O)Nc2cccc(C(=O)O)c2)cc1 = 98 % of control
• C/C=C\C(O)(C(=O)OC)c1ccccc1 (centres undefined) = 105 % of control

Field: next compound
Incoming: Request the reported T/C associated with "O=C(CSSCC(=O)Nc1ccccc1O)Nc1ccccc1O"
Outgoing: 88 % of control

====

Test system: L1210 leukemia ip in BDF1 mice, survival T/C
procedure-details: NCI In Vivo Anticancer Drug Screen. Data for tumor model L1210 Leukemia (intraperitoneal) in B6D2F1 (BDF1) mice
applied-conditions: endpoint: mean survival time; dose: 50.0 mg/kg/injection; schedule: Q04DX002 (ip); vehicle: Klucel (hydroxypropylcellulose) (HPC); higher = longer survival
Toxic doses and inconclusive results are not listed.
outcome-measure: T/C

// solved cases for T/C follow
- C1CC2CC1C1CNCC21 (stereo not given): 97 % of control
- Cc1ccc(C(=O)n2c(Cl)c(C=O)c3ccccc32)cc1: 94 % of control
- COc1ccc(C(=O)/C=C/c2cccc(OCc3ccccc3)c2)cc1: 91 % of control
- CCCCCCP(=O)(CCCC)CCCC: 109 % of control
- Cc1cc(C(=O)/C=C(\C(=O)c2ccccc2)c2ccccc2)ccc1Cl: 94 % of control

Required: T/C, one value per compound below.
1. CCCCCCCCCN1CCCC(C)C1 (stereo not given)
2. Nc1ccc(Sc2ccc(N)cc2)cc1
3. CCCCCCCCCCCCCCCCCC1=NCCN1

Outgoing:
["101 % of control", "106 % of control", "103 % of control"]

====

Would you kindly list T/C for each of these molecules?
System: L1210 leukemia ip in BDF1 mice, survival T/C
procedure-details: NCI In Vivo Anticancer Drug Screen. Data for tumor model L1210 Leukemia (intraperitoneal) in B6D2F1 (BDF1) mice
applied-conditions: endpoint: mean survival time; dose: 100.0 mg/kg/injection; schedule: Q01DX001 (ip); vehicle: Klucel (hydroxypropylcellulose) (HPC); higher = longer survival
Inconclusive results and toxic doses are left out.

// solved cases for T/C follow
- COc1ccc(NC(C)=O)cc1S(=O)(=O)F: 93 % of control
- COc1ccc(N=CC(=O)c2ccc(C)cc2)c([N+](=O)[O-])c1: 107 % of control
- Cc1nc(N)[nH]c(=O)c1CCCNC(=O)CCl (tested in a mixture with another compound): 108 % of control

Required: T/C, one value per molecule below.
1. Cc1nccnc1S(=O)c1ccc(Br)cc1 (stereo unspecified)
2. [O-][N+](Cc1ccccc1)=Nc1ccccc1

Outgoing:
1. 98 % of control
2. 100 % of control

Required: T/C, one value per molecule below.
1. CC1=CC(=O)C=CC1(C)C
2. COC(=O)NS(=O)(=O)c1ccco1
3. O=C(CCl)Nc1c(Cl)cc(Cl)cc1Cl
4. COc1ccc2c(c1OC)C1(CCN(C)C#N)CCCCC1CC2 (stereo unspecified)
5. Nc1nc(N)c(-c2ccc(Cl)c(Cl)c2)c(COc2ccc(CNS(=O)(=O)c3ccc(S(=O)(=O)F)cc3)cc2Cl)n1

Outgoing:
1. 100 % of control
2. 92 % of control
3. 103 % of control
4. 95 % of control
5. 96 % of control

Incoming: Request the reported T/C associated with "CC(C)c1ccc(C(=O)Nc2ccc(OCCCc3c(N)nc(N)nc3N)cc2)cc1S(=O)(=O)F"
Outgoing: 93 % of control

====

Tested on: L1210 leukemia ip in BDF1 mice, survival T/C
procedure-details: NCI In Vivo Anticancer Drug Screen. Data for tumor model L1210 Leukemia (intraperitoneal) in B6D2F1 (BDF1) mice
applied-conditions: endpoint: mean survival time; dose: 200.0 mg/kg/injection; schedule: Q01DX001 (ip); vehicle: acetone; higher = longer survival
Inconclusive results and toxic doses are left out.
outcome-measure: T/C

// solved cases for T/C follow
* NC(CSC(c1ccccc1)(c1ccccc1)c1ccc(C(=O)O)cc1)C(=O)O.[Ga] (stereo not given) | 98 % of control
* CCOc1ccc([N+](=O)[O-])cc1C1N(Cc2ccc(OC)cc2)CCCN1Cc1ccc(OC)cc1 | 94 % of control
* CN(C)c1ccc(C(C#N)=C(C#N)C#N)cc1 | 99 % of control
* CC(C)C(C(=O)O)N(C)N=O (stereo not given) | 103 % of control

Incoming: Request the reported T/C associated with "Cc1cc(C)c(Sc2cc(C)sc2C)c(C)c1"
Outgoing: 91 % of control

====

Test system: L1210 leukemia ip in BDF1 mice, survival T/C
procedure-details: NCI In Vivo Anticancer Drug Screen. Data for tumor model L1210 Leukemia (intraperitoneal) in B6D2F1 (BDF1) mice
applied-conditions: endpoint: mean survival time; dose: 400.0 mg/kg/injection; schedule: Q01DX009 (ip); vehicle: saline; higher = longer survival
Toxic doses and inconclusive results are not listed.
outcome-measure: T/C

// solved cases for T/C follow
• COC(=O)CC1C(=O)C(C)(C(=O)OC)CCC1c1ccc(OC)cc1 (stereo not given) = 93 % of control
• CC(C)(CCC(C)(C)NCCC#N)NCCC#N = 101 % of control
• COC(=O)C(C)NCc1ccccc1 (stereo not given) = 100 % of control
• CC1(C)c2ccccc2C(C)(C(Cl)(Cl)Cl)c2ccc(Cl)cc21 (stereo not given) = 97 % of control
• COc1ccc2c(c1)NCc1c(Br)cc(Br)cc1C2=O = 91 % of control

Required: T/C, one value per compound below.
1. O=C1OC(=O)C23CCC(CC2)C2CCC13CC2
2. Cc1cc[n+](CCC(N)=O)cc1
3. COc1ccc(C(=O)CCC(=O)O)c(C)c1
4. Nc1ccccc1O
5. CC(=O)Nc1ccn(CC(=O)c2cccs2)c(=O)n1

Outgoing:
1: 93 % of control; 2: 93 % of control; 3: 105 % of control; 4: 108 % of control; 5: 89 % of control
